- target or system: Nuclear factor NF-kappa-B complex (Homo sapiens, UniProt P19838+Q00653+Q04206)
- Sequence (P19838 1-433 limits assumed): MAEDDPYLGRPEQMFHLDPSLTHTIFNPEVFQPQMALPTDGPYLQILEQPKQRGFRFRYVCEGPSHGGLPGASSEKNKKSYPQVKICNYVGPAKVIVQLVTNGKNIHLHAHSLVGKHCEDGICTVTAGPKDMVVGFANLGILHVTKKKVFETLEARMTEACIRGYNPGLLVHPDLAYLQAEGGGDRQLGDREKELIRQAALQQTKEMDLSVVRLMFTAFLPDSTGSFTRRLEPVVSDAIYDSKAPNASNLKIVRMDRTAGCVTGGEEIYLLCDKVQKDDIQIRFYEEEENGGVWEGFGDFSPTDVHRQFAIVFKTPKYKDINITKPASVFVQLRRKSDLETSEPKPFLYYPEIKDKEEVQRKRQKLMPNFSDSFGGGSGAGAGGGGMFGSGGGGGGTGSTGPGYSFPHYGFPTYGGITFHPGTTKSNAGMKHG
- Sequence (Q00653 1-454 limits assumed): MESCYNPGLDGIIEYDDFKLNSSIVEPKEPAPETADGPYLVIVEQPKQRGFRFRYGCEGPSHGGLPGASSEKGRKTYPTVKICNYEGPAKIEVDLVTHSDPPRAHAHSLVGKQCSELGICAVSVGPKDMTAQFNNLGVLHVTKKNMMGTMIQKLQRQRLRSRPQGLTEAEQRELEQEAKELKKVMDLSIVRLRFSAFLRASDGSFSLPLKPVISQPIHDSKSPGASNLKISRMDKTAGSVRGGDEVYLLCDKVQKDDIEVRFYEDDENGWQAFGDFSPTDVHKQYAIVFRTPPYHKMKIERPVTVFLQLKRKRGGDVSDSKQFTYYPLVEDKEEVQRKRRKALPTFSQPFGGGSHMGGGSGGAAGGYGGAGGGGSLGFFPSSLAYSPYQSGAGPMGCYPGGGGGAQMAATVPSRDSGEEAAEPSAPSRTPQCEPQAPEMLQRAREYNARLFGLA
- Sequence (Q04206 whole entry): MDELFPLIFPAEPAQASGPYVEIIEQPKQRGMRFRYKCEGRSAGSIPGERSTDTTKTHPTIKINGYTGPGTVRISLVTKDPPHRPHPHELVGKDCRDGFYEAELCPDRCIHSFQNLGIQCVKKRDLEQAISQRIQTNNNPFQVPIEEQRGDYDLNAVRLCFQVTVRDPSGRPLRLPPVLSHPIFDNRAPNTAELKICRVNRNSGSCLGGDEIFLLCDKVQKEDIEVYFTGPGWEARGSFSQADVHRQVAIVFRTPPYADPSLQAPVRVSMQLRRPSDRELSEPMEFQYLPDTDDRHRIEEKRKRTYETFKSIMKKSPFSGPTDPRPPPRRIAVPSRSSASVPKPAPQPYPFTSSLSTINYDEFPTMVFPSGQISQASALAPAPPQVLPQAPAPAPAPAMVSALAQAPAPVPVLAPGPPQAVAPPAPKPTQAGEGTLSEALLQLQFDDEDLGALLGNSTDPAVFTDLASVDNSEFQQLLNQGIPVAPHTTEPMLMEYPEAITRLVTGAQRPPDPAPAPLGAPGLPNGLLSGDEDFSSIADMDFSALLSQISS
- assay overview: Inhibition of NF-kappaB in human THP1 cells incubated for 2 hrs prior to LPS challenge measured after 16 hrs by SEAP assay
pIC50: −log10 of the molar value.
measurement name: pIC50

-- ask Answer with the recorded pIC50 of CC(C)=CCOc1cccc(O)c1C(=O)/C=C/c1ccc(O)cc1 only.
-- reply < 4.52

-- ask # return recorded pIC50 for entry COc1cccc(OCCC(C)(C)C)c1C(=O)/C=C/c1ccc(O)cc1
-- reply < 4.52

-- ask Answer with the recorded pIC50 of CCCCOc1cccc(O)c1C(=O)/C=C/c1ccc(O)cc1 only.
-- reply < 4.52

---

- Test system: PC-3
- assay overview: Antiproliferative activity against human PC3 cells by SRB method
- Format: functional
measurement name: GI50 (µM)
// note: answer is a bare numeric in µM

-- ask State measured GI50 of the molecule CC(C)COc1cccc(O)c1C(=O)/C=C/c1ccc(O)cc1 with PC-3.
-- reply 2.97

-- ask Report GI50 from PC-3 testing of CCC(CC)COc1cccc(O)c1C(=O)/C=C/c1ccc(O)cc1
-- reply 3.39

-- ask State GI50 (PC-3) of CC(C)(C)CCOc1cccc(O)c1C(=O)/C=C/c1ccc(O)cc1 .
-- reply 3.22

-- ask Under PC-3: report GI50 of CC(C)(C)CCOc1cccc(O)c1C(=O)/C=C/c1ccc(S(N)(=O)=O)cc1 .
-- reply 3.25

-- ask State measured GI50 of the molecule CC(C)(C)CCOc1cccc(O)c1C(=O)/C=C/c1ccc(C(=O)O)cc1 with PC-3.
-- reply 6.5

---

- target or system: Nuclear factor NF-kappa-B complex (Homo sapiens, UniProt P19838+Q00653+Q04206)
- assay overview: Inhibition of NF-kappaB in human THP1 cells incubated for 2 hrs prior to LPS challenge measured after 16 hrs by SEAP assay
measurement name: IC50

-- ask Tell me IC50 reported for O=C(/C=C/c1ccc(O)cc1)c1c(O)cccc1OCC12CC3CC(CC(C3)C1)C2
-- reply > 30 µM

-- ask State its IC50 for this compound: O=C(/C=C/c1ccc(O)cc1)c1c(O)cccc1OCCC1CCCCC1
-- reply > 30 µM

-- ask For the compound CC(C)(C)CCOc1cccc(O)c1C(=O)CCc1ccc(O)cc1 , report IC50.
-- reply > 30 µM
